- assay.target: cMET receptor tyrosine kinase (GST-cMET (969-1390)) (Homo sapiens, UniProt P08581)
- Sequence (P08581 969-1390): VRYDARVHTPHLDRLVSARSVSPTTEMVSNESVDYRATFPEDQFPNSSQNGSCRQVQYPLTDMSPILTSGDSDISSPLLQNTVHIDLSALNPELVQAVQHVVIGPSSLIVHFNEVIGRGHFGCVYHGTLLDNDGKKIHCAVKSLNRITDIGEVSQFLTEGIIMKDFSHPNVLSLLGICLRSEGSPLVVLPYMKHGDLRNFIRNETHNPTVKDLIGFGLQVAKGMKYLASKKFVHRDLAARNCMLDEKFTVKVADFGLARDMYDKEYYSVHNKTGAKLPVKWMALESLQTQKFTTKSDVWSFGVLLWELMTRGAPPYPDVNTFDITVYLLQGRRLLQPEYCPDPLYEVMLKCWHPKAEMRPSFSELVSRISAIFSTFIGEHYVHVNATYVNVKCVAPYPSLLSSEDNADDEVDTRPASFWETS
- experiment.notes: EPK cMET profiling assay (LanthaScreen TR-FRET antibody based kinase phosphorylation assay)
- cond: purified recombinant GST-cMET (969-1390), 2 μM ATP, 50 nM Fluorescein-PolyEAY, 60 minutes at room temperature; read-out: c-Met IC50
Exercise: state measured pIC50 for each of the molecules provided.
// returns pIC50 (minus log10 of molar concentration), number only

Record request: pIC50 value, item C=Cc1cnc2ccc(Cc3cnc4ccc(-c5cnn(C)c5)nn34)cn12
6.57

Record request: pIC50 value, item c1cnc2ccc(Cc3cnc4ccc(-c5cnc6ccccc6c5)nn34)cc2c1
7.14

Record request: pIC50 value, item Cn1cc(-c2ccc3ncc(Cc4ccc5[nH]ncc5c4)n3n2)cn1
7.25

Record request: pIC50 value, item Cn1cc(-c2ccc3ncc(C(O)c4ccc5ncn(C)c5c4)n3n2)cn1 (racemic)
6.28

Record request: pIC50 value, item C[C@H](c1c(F)cc2ncccc2c1F)c1cnc2ccc(-c3cnn(C)c3)nn12
6.60

Record request: pIC50 value, item Clc1cccc(Nc2ccc3ncc(Cc4ccc5ncccc5c4)n3n2)c1
7.70

Record request: pIC50 value, item OCCn1cc(-c2ccc3ncc(Cc4ccc5nccn5c4)n3n2)cn1
6.89

Record request: pIC50 value, item OCCn1cc(-c2ccc3ncc(Cc4ccc5ncccc5c4Cl)n3n2)cn1
7.60

Record request: pIC50 value, item Cn1cc(-c2ccc3ncc(C(O)c4ccc5ncccc5c4F)n3n2)cn1 (racemic)
7.18

* * *

- assay.target: cMET receptor tyrosine kinase (GST-cMET (969-1390)) (Homo sapiens)
- experiment.notes: EPK cMET profiling assay (LanthaScreen TR-FRET antibody based kinase phosphorylation assay)
- cond: purified recombinant GST-cMET (969-1390), 2 μM ATP, 50 nM Fluorescein-PolyEAY, 60 minutes at room temperature; read-out: c-Met IC50
quantity: log10 of IC50 (log10 of the value in µM)
Scale type: logarithmic (base 10). Underlying IC50 unit: µM.

Record request: log10 of IC50 value, item Cn1cc(-c2ccc3ncc(Cc4cc5cccnc5cc4F)n3n2)cn1 [Example 173]
-2.40

Record request: log10 of IC50 value, item CC(c1ccc2ncn(C)c2c1)c1cnc2ccc(-c3cnn(C)c3)nn12 (racemic) [Example 206]
-1.51

Record request: log10 of IC50 value, item CC(c1ccc2ncc(Br)n2c1)c1cnc2ccc(-c3cnn(CCO)c3)nn12 (racemic) [Example 310]
-2.00

Record request: log10 of IC50 value, item O=S1(=O)CCC(Nc2ccc3ncc(Cc4ccc5ncccc5c4)n3n2)C1 (centres unmarked) [Example 99]
-0.92

Record request: log10 of IC50 value, item Clc1cc(-c2ccc3ncc(Cc4ccc5ncccc5c4)n3n2)ccn1 [Example 49]
-1.64

Record request: log10 of IC50 value, item CC(c1ccc2nccn2c1)c1cnc2ccc(-c3cnn(C)c3)nn12 (racemic) [Example 293]
-1.64

Record request: log10 of IC50 value, item CC(C)CNc1ccc2ncc(Cc3ccc4ncccc4c3)n2n1 [Example 79]
-1.36

Record request: log10 of IC50 value, item Cn1cc(-c2ccc3ncc(Cc4cn5ccnc5cc4F)n3n2)cn1 [Example 205]
-1.33

Record request: log10 of IC50 value, item c1cnc2ccc(Cc3cnc4ccc(-c5ccc6[nH]ccc6c5)nn34)cc2c1 [Example 45]
-1.00

Record request: log10 of IC50 value, item c1cnc2ccc(Cc3cnc4ccc(-c5ccsc5)nn34)cc2c1 [Example 65]
-0.80

Record request: log10 of IC50 value, item O=Cc1cccc(-c2ccc3ncc(Cc4ccc5ncccc5c4)n3n2)c1 [Example 24]
-1.63

Record request: log10 of IC50 value, item Cc1cn(-c2ccc3ncc(Cc4ccc5ncccc5c4)n3n2)cn1 [Example 118]
-0.66

Record request: log10 of IC50 value, item CN1CCC(Nc2ccc3ncc(Cc4ccc5ncccc5c4)n3n2)CC1 [Example 83]
-0.94

Record request: log10 of IC50 value, item CC(c1cc2cccnc2cc1F)c1cnc2ccc(-c3cnn(C4CCN(C)CC4)c3)nn12 (racemic) [Example 259]
-1.64

Record request: log10 of IC50 value, item CSc1ccc(-c2ccc3ncc(Cc4ccc5ncccc5c4)n3n2)cc1 [Example 23]
-0.90

Record request: log10 of IC50 value, item CN1CC(n2cc(-c3ccc4ncc(Cc5cc6cccnc6cc5F)n4n3)cn2)C1 [Example 146]
-1.17

Record request: log10 of IC50 value, item OCCn1cc(-c2ccc3ncc(Cc4ccc(O)cc4F)n3n2)cn1 [Example 219]
-0.92

Record request: log10 of IC50 value, item OCCn1cc(-c2ccc3ncc(Cc4ccc5ncccc5c4)n3n2)cn1 [Example 210]
-1.28

Record request: log10 of IC50 value, item O=C1CN(c2ccc3ncc(Cc4ccc5ncccc5c4)n3n2)CCN1 [Example 102]
-1.42

Record request: log10 of IC50 value, item Cn1cc(-c2ccc3ncc(C(F)(F)c4ccc5ncccc5c4)n3n2)cn1 [Example 6]
-1.85

Record request: log10 of IC50 value, item CC(c1ccc2n[nH]cc2c1)c1cnc2ccc(-c3cnn(CCO)c3)nn12 (racemic) [Example 190]
-1.25

Record request: log10 of IC50 value, item Clc1ccc(-c2ccc(-c3ccc4ncc(Cc5ccc6ncccc6c5)n4n3)cn2)cn1 [Example 48]
-0.72

Record request: log10 of IC50 value, item CC(Nc1ccc2ncc(Cc3ccc4ncccc4c3)n2n1)c1ccccc1 (centres unmarked) [Example 103]
-0.26

* * *

- assay.target: cMET receptor tyrosine kinase (GST-cMET (969-1390)) (Homo sapiens, UniProt P08581)
- experiment.notes: EPK cMET profiling assay (LanthaScreen TR-FRET antibody based kinase phosphorylation assay)
- cond: purified recombinant GST-cMET (969-1390), 2 μM ATP, 50 nM Fluorescein-PolyEAY, 60 minutes at room temperature; read-out: c-Met IC50
So basically: is IC50 under 0.1 µM? Then fulfilled. Not under? Then not fulfilled.

Regarding CN1CCC(n2cc(-c3ccc4ncc(Cc5c(F)cc6ncccc6c5F)n4n3)cn2)CC1 , kindly confirm whether its IC50 is beneath 0.1 µM.
fulfilled

Regarding CC(c1c(F)cc2ncccc2c1F)c1cnc2ccc(-c3cnn(C)c3)nn12 (racemic) , kindly confirm whether its IC50 is beneath 0.1 µM.
fulfilled

Regarding Clc1cccc(Sc2ccc3ncc(Cc4ccc5ncccc5c4)n3n2)c1 , kindly confirm whether its IC50 is beneath 0.1 µM.
not fulfilled

Regarding Cn1cc(-c2ccc3ncc(Cc4ccc5[nH]cnc5c4)n3n2)cn1 , kindly confirm whether its IC50 is beneath 0.1 µM.
fulfilled

Regarding COCCn1cc(-c2ccc3ncc(Cc4cc5cccnc5cc4F)n3n2)cn1 , kindly confirm whether its IC50 is beneath 0.1 µM.
not fulfilled

Regarding CC(O)c1cnc2ccc(Cc3cnc4ccc(-c5cnn(C)c5)nn34)cn12 (stereo not drawn) , kindly confirm whether its IC50 is beneath 0.1 µM.
not fulfilled

Regarding O=[N+]([O-])c1cccc(-c2ccc3ncc(Cc4ccc5ncccc5c4)n3n2)c1 , kindly confirm whether its IC50 is beneath 0.1 µM.
fulfilled

Regarding CC(c1ccc2ncc(Br)n2c1)c1cnc2ccc(-c3cnn(C)c3)nn12 (racemic) , kindly confirm whether its IC50 is beneath 0.1 µM.
fulfilled

Regarding O=C1CCN(c2ccc3ncc(Cc4ccc5ncccc5c4)n3n2)CC1 , kindly confirm whether its IC50 is beneath 0.1 µM.
fulfilled

Regarding COc1cccc(Nc2ccc3ncc(Cc4ccc5ncccc5c4)n3n2)c1 , kindly confirm whether its IC50 is beneath 0.1 µM.
not fulfilled

Regarding Cn1cc(-c2ccc3ncc(Cc4ccc5nc(F)cn5c4)n3n2)cn1 , kindly confirm whether its IC50 is beneath 0.1 µM.
not fulfilled

Regarding O[C@H]1CCN(c2ccc3ncc(Cc4cc5cccnc5cc4F)n3n2)C1 , kindly confirm whether its IC50 is beneath 0.1 µM.
not fulfilled

Regarding c1cnc2ccc(Cc3cnc4ccc(-c5cncc6ccccc56)nn34)cc2c1 , kindly confirm whether its IC50 is beneath 0.1 µM.
not fulfilled

Regarding CCn1cc(-c2ccc3ncc(C(O)c4cc5cccnc5cc4F)n3n2)cn1 (racemic) , kindly confirm whether its IC50 is beneath 0.1 µM.
not fulfilled

Regarding Fc1cc2ncccc2cc1Cc1cnc2ccc(-c3cnn(C4CCN(CC(F)(F)F)CC4)c3)nn12 , kindly confirm whether its IC50 is beneath 0.1 µM.
fulfilled

Regarding CCOC(=O)c1cccc(-c2ccc3ncc(Cc4ccc5ncccc5c4)n3n2)c1 , kindly confirm whether its IC50 is beneath 0.1 µM.
not fulfilled

* * *

- assay.target: cMET receptor tyrosine kinase (GST-cMET (969-1390)) (Homo sapiens, UniProt P08581)
- Construct: made in house
- experiment.notes: EPK cMET profiling assay (LanthaScreen TR-FRET antibody based kinase phosphorylation assay)
- Type: biochemical
- cond: purified recombinant GST-cMET (969-1390), 2 μM ATP, 50 nM Fluorescein-PolyEAY, 60 minutes at room temperature; read-out: c-Met IC50
quantity: pIC50
// returns pIC50 (minus log10 of molar concentration), number only

Record request: pIC50 value, item FC(F)(F)c1cccc(Nc2ccc3ncc(Cc4ccc5ncccc5c4)n3n2)c1
7.05

Record request: pIC50 value, item F[C@@H]1CCN(c2ccc3ncc(Cc4ccc5ncccc5c4)n3n2)C1
6.74

Record request: pIC50 value, item C[C@@H](c1ccc2ncccc2c1)c1cnc2ccc(-c3cn[nH]c3)nn12
8.08
